As an illustration, consider measured IC50 for compounds on Collagenase 3 (Homo sapiens).
Non-standard residues stand in square brackets, D forms with d. Residues, ends and D or L forms follow the SMILES beside them. *: point of attachment. Benzenesulfonyl(4-OPh) = O=S(=O)(c1ccc(Oc2ccccc2)cc1)*; Benzenesulfonyl(4-Ph) = O=S(=O)(c1ccc(-c2ccccc2)cc1)*; Benzoyl(4-OPh) = O=C(c1ccc(Oc2ccccc2)cc1)*; NMeI = CC[C@H](C)[C@H](NC)C(=O)O; NMeE = CN[C@@H](CCC(=O)O)C(=O)O; NMeL = CN[C@@H](CC(C)C)C(=O)O; β3hP = O=C(O)C[C@@H]1CCCN1; Dab = NCC[C@H](N)C(=O)O; Ava = NCCCCC(=O)O; GABA = NCCCC(=O)O
Report field: quantity (unit follows the number).

See these solved cases before continuing.
- compound: "CC[C@H](C)[C@@H](C(=O)N1CCC[C@H]1CC(N)=O)N(C)C(=O)[C@H](CC(C)C)NC(=O)[C@H](C)NC(=O)[C@H](CC(=O)O)NC(=O)[C@H](CC(N)=O)NC(=O)CCCNS(=O)(=O)c1ccc(Oc2ccccc2)cc1 ({Benzenesulfonyl(4-OPh)-GABA}-NDAL[NMeI][β3hP]-NH2)"
  IC50: "21 nM"
- compound: "CSCC[C@H](NC(=O)[C@H](CC(C)C)NC(=O)[C@H](C)NC(=O)[C@H](CC(=O)O)NC(=O)[C@H](CC(N)=O)NC(=O)CCCCNS(=O)(=O)c1ccc(-c2ccccc2)cc1)C(=O)N1CCC[C@H]1C(N)=O ({Benzenesulfonyl(4-Ph)-Ava}-NDALMP-NH2)"
  IC50: "1710 nM"

Problem: Find IC50 (Collagenase 3 (Homo sapiens)) for the entry CC(C)C[C@H](NC(=O)[C@H](CCN)NC(=O)[C@H](CC(=O)O)NC(=O)[C@H](CC(N)=O)NC(=O)CCCNC(=O)c1ccc(Oc2ccccc2)cc1)C(=O)N(C)[C@@H](CCC(=O)O)C(=O)N1CCC[C@H]1CC(N)=O ({Benzoyl(4-OPh)-GABA}-ND[Dab]L[NMeE][β3hP]-NH2)
Solution: 2000 nM

Problem: Notebook entry, Collagenase 3 (Homo sapiens) assay: IC50 of CC(C)C[C@H](NC(=O)[C@H](C)NC(=O)[C@H](CC(=O)O)NC(=O)[C@H](CC(N)=O)NC(=O)CCCNS(=O)(=O)c1ccc(Oc2ccccc2)cc1)C(=O)N(C)[C@@H](CC(C)C)C(=O)N1CCC[C@H]1CC(N)=O ({Benzenesulfonyl(4-OPh)-GABA}-NDAL[NMeL][β3hP]-NH2) = ?
Solution: 15 nM

* * *

- protocol text: Chemical stability of the compound in acetate buffer at pH 4.0 assessed as residual rate incubated for 2 weeks by HPLC analysis
- Assay type: physicochemical
- run parameters: read-out: Stability
Non-standard residues stand in square brackets, D forms with d. Residues, ends and D or L forms follow the SMILES beside them. *: point of attachment. Benzoyl(4-OPh(4-CONH2)) = NC(=O)c1ccc(Oc2ccc(C(=O)*)cc2)cc1; NMeE = CN[C@@H](CCC(=O)O)C(=O)O; β3hP = O=C(O)C[C@@H]1CCCN1; Dab = NCC[C@H](N)C(=O)O; Ava = NCCCCC(=O)O
measurement kind: remaining at 336 h

- molecule: "CC(C)C[C@H](NC(=O)[C@H](CCN)NC(=O)[C@H](CC(=O)O)NC(=O)[C@H](CC(N)=O)NC(=O)CCCCNC(=O)c1ccc(Oc2ccc(C(N)=O)cc2)cc1)C(=O)N(C)[C@@H](CCC(=O)O)C(=O)N1CCC[C@H]1CC(N)=O ({Benzoyl(4-OPh(4-CONH2))-Ava}-ND[Dab]L[NMeE][β3hP]-NH2)"
  remaining at 336 h: "95.8%"

Problem: // returns reported remaining at 336 h for input CC(C)C[C@H](NC(=O)[C@H](CCN)NC(=O)[C@H](CC(=O)O)NC(=O)[C@H](CCC(=O)O)NC(=O)CCCCNC(=O)c1ccc(Oc2ccc(C(N)=O)cc2)cc1)C(=O)N(C)[C@@H](CCC(=O)O)C(=O)N1CCC[C@H]1CC(N)=O ({Benzoyl(4-OPh(4-CONH2))-Ava}-ED[Dab]L[NMeE][β3hP]-NH2)
Solution: 88%
